B1: Twister Ribozyme (parent)
chain: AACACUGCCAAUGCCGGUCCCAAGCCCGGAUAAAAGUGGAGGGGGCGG

Variants of: B1
Assay: self-cleavage, relative activity (ratio to wild type); higher = more cleavage; co-transcriptional
Listing of recorded self-cleavage by entry.

alteration	self-cleavage
A30C G39C	0.107
G7U A23C	0.0594
G24A A34U	0.0893
U6C A30C	0.0653
C20A G28U	0.0952
G42U C46A	0.162
A4G A23G	0.384
C3A G39A	0.0266
A23U C25U	0.116
C5U C14G	0.0879
U31C G38C	0.842
A2C G36U	0.0783
A4C U37C	0.122
G16U G48U	0.843
C14A A23C	0.348
G16U C27U	1.16
A11U G16A	0.804
C9G G16U	0.346
A10U C21A	0.175
A33G G48U	0.903
A2U G28U	0.519
U18C C46A	0.463
C9G A40C	0.102
G42A G45A	0.422
U18C G44A	0.714
G24U G28U	0.0893
C19U G48A	0.915
G28U U37C	0.431
G16A C25G	0.298
G36U G45U	0.315
A10G G41U	0.781
G28C A33C	0.745
G41C G48C	0.332
G17U C25G	0.0862
U6C A35G	0.832
A22C C26G	0.112
C25A G38U	0.0853
C19U G24U	0.0889
A22U G45U	0.57
U31C G43C	0.194
A35U G38U	0.942
